targetOrTestSystem: MAGI2_5, Q86UL8
Sequence (Q86UL8 915-1017): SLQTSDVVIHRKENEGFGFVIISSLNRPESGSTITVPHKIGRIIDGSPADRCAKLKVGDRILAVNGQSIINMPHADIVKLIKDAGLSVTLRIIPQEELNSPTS
assayExplanation: holdup assay
Design: key: below the threshold = too weak to quantify, mostly under pKd 3.1 to 4
assaySetup: plain residues with an end cap or a label only (N-terminal biotin on a linker: ttds)
What pKd was measured for each of the following?
Write no unit; give the number alone.

Tell me pKd reported for NPDALPETLV [ARHGAP6, O43182]
4.45

Indicate the recorded pKd value for this binder: SGGKRKETLV [NET1, Q7Z628]
4.56

Input PPRQRSETQV [HPV82-E6, Q9IR59] , output reported pKd.
4

Output pKd of KQVVPFSSSV [GDA, Q9Y2T3]
3.74

For SSIDLWETAL [SLC15A5, A6NIM6] , write its pKd.
4.97

Report pKd for FVETQHQTQV [FAT3, Q8TDW7]
4.72

Look up pKd of KLVIKTETTV [RASSF6, Q6ZTQ3] and report it.
3.77
